Test: qHTS assay to test for compound auto fluorescence at 460 nm (blue) in HepG2 cell free culture (AID 720685); also: % is scaled to controls: 0 for no effect and ±100 for the full control effect
Details: Cell-free culture medium, blue autofluorescence 405/460 nm; series mostly up to 91.3 µM
Calls of active or inactive are those of the source. Calls follow the shape of the dose curve; as a rule, active = well fitted curve in the direction sought with a large enough effect in the repeat runs; inconclusive = weak or mixed curves; inactive = flat fitted curve, though single readings scatter.
quantity name: fluorescence, % of fluorescent control

// below: answered molecules
INSERT INTO results (molecule, quantity_name, endpoint_value) VALUES
  ('CC(=O)N(O)CCCCCNC(=O)CCC(=O)N(O)CCCCCNC(=O)CCC(=O)N(O)CCCCCN', 'fluorescence, % of fluorescent control', '0.0393% [at 18.6 µM] (inactive)'),
  ('CCCCCCCCCCCCCCCBr', 'fluorescence, % of fluorescent control', 'inactive'),
  ('CN(C)CC[C@@H](c1ccc(Br)cc1)c1ccccn1', 'fluorescence, % of fluorescent control', 'inactive'),
  ('CCCCOC(O)CC (configuration not stated)', 'fluorescence, % of fluorescent control', 'inactive'),
  ('O=C(O)c1cccc(N(Cc2cccnc2)c2ccc(OC(F)F)c(OC(F)F)c2)c1', 'fluorescence, % of fluorescent control', 'inactive'),
  ('CCCCCOC(=O)COc1cc(N2C(=O)C3=C(CCCC3)C2=O)c(F)cc1Cl', 'fluorescence, % of fluorescent control', 'inactive');

Task: Could you please provide reported fluorescence, % of fluorescent control for N#Cc1cc2ccccc2c2ccccc12 ? Thanks!
Output: inactive

Task: Could you please provide reported fluorescence, % of fluorescent control for CCCCOc1ccc(CC(=O)NO)cc1 ? Thanks!
Output: 0.0098% [at 18.6 µM] (inactive)
